- System: CYP3A4&5
- PROCEDURE_DETAILS: CYP inhibition, human liver microsomes
- Format: in vitro ADME
- ASSAY_CONDITIONS: probe testosterone, substrate testosterone, read-out: CYP3A4&5 testosterone Inh %
ASSAY_METRIC: inhibition at 10 µM (%)

(1) CC(C)Cc1cc(-c2ccc(Cn3ccnc3C(C)(C)C)cc2)c(S(=O)(=O)NC(=O)NCc2cccs2)s1
(2) CCNC(=O)NS(=O)(=O)c1sc(CC(C)C)cc1-c1ccc(Cn2ccnc2C(C)(C)C)c(F)c1
**Q:** Hey, between 1 and 2 which has a smaller measured inhibition at 10 µM? Please indicate the selected item by its label.
**A:** 2

(1) CC(C)Cc1cc(-c2ccc(Cn3ccnc3C(C)(C)C)cc2)c(S(=O)(=O)NC(=O)NCc2ccco2)s1
(2) CC(C)Cc1cc(-c2ccc(Cn3ccnc3C(C)(C)C)c(F)c2)c(S(=O)(=O)NC(=O)NCc2ccccn2)s1
**Q:** # returns the entry with the larger inhibition at 10 µM; inputs 1 and 2 Indicate your choice by writing its label.
**A:** 2
(2: 18.9%, 1: 11.8%)
